These data points were gathered from paper PMC2756588.

study-target: T1, Hse1, P38753
T1 sequence (P38753 208-285, looked up): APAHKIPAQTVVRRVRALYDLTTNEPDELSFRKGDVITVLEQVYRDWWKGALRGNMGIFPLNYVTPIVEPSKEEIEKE
experimental-protocol: SPOT array
experimental-context: median of control spots 1727
measure-name: SPOT intensity

- binder: "GKKVRPLLVLLLSRA"
  endpoint-value: 0
- binder: "GERSRPLVISILSSA"
  endpoint-value: 0

[a] SLSRRRFSLPSMPNV
[b] FLIKFTPKFPQSIDH
*Q* Hey, which is lower on measured SPOT intensity, a or b ? State your choice using its label.
*A* b
